Test system: HRAS
Assay: 3' UTR reporter interaction score (median-centred robust z-score of log2 firefly/Renilla activity); higher = less repression of the 3' UTR reporter
Conditions: HEK293T; 48 h
# 3' UTR reporter interaction score per entry
Measurement Label: 3' UTR reporter interaction score

{"columns": ["Residue String", "Measurement Label", "Val"],
 "data": [
  ["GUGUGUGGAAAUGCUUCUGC", "3' UTR reporter interaction score", 0.713],
  ["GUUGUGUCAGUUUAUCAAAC", "3' UTR reporter interaction score", 0.822],
  ["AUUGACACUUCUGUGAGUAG", "3' UTR reporter interaction score", -0.309]
]}

Values from the supplement of paper PMC5844555
